From: ChEMBL document CHEMBL3045520

# ASSAY OVERVIEW: Binding affinity to SafBP receptor in Zea mays (maize) seedlings by [3H]Saf(R-29148) binding assay
PROPERTY MEASURED: IC50 (nM)
Quick reminder: number only, in nM, skip the unit.

Reference set, count: 3
| COMPOUND | UNIT ANNOTATION | IC50 |
| --- | --- | --- |
| CC1(C(Cl)Cl)OCCO1 | nM | 4400 |
| C=CCN(CC=C)C(=O)C(Cl)Cl | nM | 10 |
| O=C(C(Cl)Cl)N1CCOC12CCCCC2 | nM | 6000 |

// next entry
Challenge: // returns reported IC50 for input CC1CN(C(=O)C(Cl)Cl)C(C)(C)O1 (centres undefined)
Response given: 120
